# Target: human TLR7 (Homo sapiens)
# Construct: expressed in transfected cells; host or cells: HEK293 cells, transient transfection with CMV-TLR7 plasmid and NFκB-luc plasmid
# Sequence (Q9NYK1 27-1049): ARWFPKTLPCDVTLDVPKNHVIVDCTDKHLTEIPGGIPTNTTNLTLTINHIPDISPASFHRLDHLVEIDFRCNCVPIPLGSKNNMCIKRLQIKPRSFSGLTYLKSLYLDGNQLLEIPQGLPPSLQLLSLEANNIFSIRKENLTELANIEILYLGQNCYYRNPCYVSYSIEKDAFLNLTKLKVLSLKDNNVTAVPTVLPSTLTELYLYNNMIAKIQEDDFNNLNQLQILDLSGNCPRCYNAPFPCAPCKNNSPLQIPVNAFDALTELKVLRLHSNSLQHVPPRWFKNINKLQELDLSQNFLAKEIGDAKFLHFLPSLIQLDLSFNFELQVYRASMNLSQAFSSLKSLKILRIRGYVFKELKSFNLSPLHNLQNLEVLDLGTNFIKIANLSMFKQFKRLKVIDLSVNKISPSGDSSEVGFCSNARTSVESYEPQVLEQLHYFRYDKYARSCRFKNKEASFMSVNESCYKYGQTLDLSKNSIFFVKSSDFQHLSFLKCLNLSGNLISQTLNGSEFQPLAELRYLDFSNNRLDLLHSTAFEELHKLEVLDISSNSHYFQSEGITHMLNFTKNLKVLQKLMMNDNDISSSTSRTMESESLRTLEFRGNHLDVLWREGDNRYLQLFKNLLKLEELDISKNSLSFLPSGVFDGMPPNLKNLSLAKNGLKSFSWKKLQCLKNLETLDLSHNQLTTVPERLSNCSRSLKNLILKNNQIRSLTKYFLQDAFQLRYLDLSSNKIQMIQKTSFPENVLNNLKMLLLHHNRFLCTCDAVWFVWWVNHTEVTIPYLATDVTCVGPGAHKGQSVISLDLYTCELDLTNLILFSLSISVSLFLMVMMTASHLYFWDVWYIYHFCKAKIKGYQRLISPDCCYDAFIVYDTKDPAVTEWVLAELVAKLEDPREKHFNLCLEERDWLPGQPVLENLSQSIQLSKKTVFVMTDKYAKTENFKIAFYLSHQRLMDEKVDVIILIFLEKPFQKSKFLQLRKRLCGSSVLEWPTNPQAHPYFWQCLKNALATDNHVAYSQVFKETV
# Protocol Summary: TLR7 cellular reporter assay (HEK293, NFκB-luc)
# Assay type: cell-based
# Condition Set: HEK293 cells transfected with CMV-TLR7 and NFκB-luc, 6 hours incubation; lowest effective concentration
Exercise: state measured TLR7 LEC for each of the molecules provided.
Please report the result as a number followed by the unit.

get_value(item= CCCCNc1nc(N)nc2ccn(C(C)C)c12 , readout=TLR7 LEC) returns 2.5 µM

get_value(item= Cc1cc(CNc2nc(N)nc3ccn(Cc4cn(-c5ccccc5)nn4)c23)no1 , readout=TLR7 LEC) returns 0.04 µM

get_value(item= COCCNc1nc(N)nc2ccn(C[C@H]3CCCO3)c12 , readout=TLR7 LEC) returns 8.07 µM

get_value(item= COC[C@H](C)Nc1nc(N)nc2ccn(Cc3ccccn3)c12 , readout=TLR7 LEC) returns 6.94 µM

get_value(item= COCCNc1nc(N)nc2ccn(Cc3ncc(C)c(OC)c3C)c12 , readout=TLR7 LEC) returns 4.49 µM

get_value(item= COCCNc1nc(N)nc2ccn(Cc3cc(OC)ccn3)c12 , readout=TLR7 LEC) returns 3.220 µM

get_value(item= CCC[C@@H](CCO)Nc1nc(N)nc2ccn(CC3CCCCC3)c12 , readout=TLR7 LEC) returns 0.01 µM

get_value(item= CCCCNc1nc(N)nc2ccn(Cc3cc(F)ccc3Br)c12 , readout=TLR7 LEC) returns 2.6 µM

get_value(item= CCCC(C)Nc1nc(N)nc2ccn(Cc3ccc(OC)cc3)c12 (stereo not drawn) , readout=TLR7 LEC) returns 0.04 µM
